- Protocol Summary: folding stability dG unfold from chymotrypsin proteolysis; higher = more stable
Reported Metric: folding stability dG unfold (kcal/mol)

                            record_sequence  measure_unit  numeric_value
0  SGPTVTYKVPYTRDVAVPTVKIGAKVTTTTTVTKLPNGTLASTSTSADVELTLNLPPDTPLSPNYLSTGGSA [r9_277_JUSTAS]      kcal/mol         -0.175
1  SAGGSAGGSAGEGLKVTVTVSGELDPEKGGLSLRVEIRVEPVLIPPPVLPPAADNLSNLLSAGGSAGGSAGG [r17_454_TrMRF]      kcal/mol          0.912
2  SGMMRTIVLKIPIEEARKLLGDPNKPVSEEELKALVEKLAKEKGLDVEEIKVEKLPDGTYVVTVLVPDLGSA [r9_52_JUSTAS]      kcal/mol           4.12
3  SAGGSAGGSSVTRLIYLEDGTVLVVKLTPKPLVLPDGKPAFVLGFEVVEIRPVKDPKEALKALSAGGSAGGS [r12_915_TrMRF]      kcal/mol            1.3
